tested on: rodent lifetime carcinogenesis bioassay, tumor incidence TD50; test: carcinogenic potency in animals, long-term in vivo studies, CPDB compilation (AID 1745844); settings: rat; strain Fischer 344; males; in drinking water; site: lung; lesion: squamous-cell carcinoma; dosed 118 weeks; study length 128 weeks
PROPERTY LABEL: TD50 (mg/kg/day)
Write it as a number; the unit mg/kg/day goes unstated.

TD50 reported for this molecule CN(CCCC(=O)c1cccnc1)N=O : 3.4

* * *

test system: rodent lifetime carcinogenesis bioassay, tumor incidence TD50; test: carcinogenic potency in animals, long-term in vivo studies, CPDB compilation (AID 1745844); conditions: rat; strain Wistar; males; inhaled; site: extrahepatic tissue; lesion: angioma; dosed 52 weeks; study length 127 weeks
PROPERTY LABEL: TD50

TD50 reported for this molecule C=CCl : 0.37 mg/kg/day

* * *

tested on: rodent lifetime carcinogenesis bioassay, tumor incidence TD50; assay: carcinogenic potency in animals, long-term in vivo studies, CPDB compilation (AID 1745844); conditions: rat; strain Fischer 344; males; inhaled; site: adrenal medulla; lesion: pheochromocytoma benign, bilateral + pheochromocytoma, malignant + pheochromocytoma, benign; dosed 104 weeks; study length 104 weeks
PROPERTY LABEL: TD50 (mg/kg/day)
Write it as a number; the unit mg/kg/day goes unstated.

Readout TD50 for CCc1ccccc1 , test system rodent lifetime carcinogenesis bioassay, tumor incidence TD50, was 106

* * *

test system: rodent lifetime carcinogenesis bioassay, tumor incidence TD50; experiment: carcinogenic potency in animals, long-term in vivo studies, CPDB compilation (AID 1745844); settings: rat; strain F344/DuCrj; males; in drinking water; site: pancreas; lesion: several types; types named in the paper; dosed 108 weeks; study length 108 weeks
The source made the active and inactive calls. No rule for the calls is given here.
PROPERTY LABEL: TD50

Readout TD50 for CCCCCCCC/C=C\CCCCCCCC(=O)O , test system rodent lifetime carcinogenesis bioassay, tumor incidence TD50, was 10100 mg/kg/day (inactive)

* * *

test system: rodent lifetime carcinogenesis bioassay, tumor incidence TD50; assay: carcinogenic potency in animals, long-term in vivo studies, CPDB compilation (AID 1745844); conditions: rat; strain Fischer 344; males; in feed; site: any site (literature study); lesion: several types; types named in the paper; dosed 103 weeks; study length 104 weeks
Active and inactive are the calls of the source. The rule behind the calls is not given here.
PROPERTY LABEL: TD50

TD50 reported for this compound N=C1C=CC(=C(c2ccc(N)cc2)c2ccc(N)cc2)C=C1 : 15.7 mg/kg/day

TD50 reported for this compound O=S(=O)(O)c1ccc(N=Nc2cc(S(=O)(=O)O)c3ccccc3c2O)c2ccccc12 : 1860 mg/kg/day (inactive)

TD50 reported for this compound Brc1c(Br)c(Br)c(Oc2c(Br)c(Br)c(Br)c(Br)c2Br)c(Br)c1Br : 2230 mg/kg/day

TD50 reported for this compound O=S(=O)(O)c1ccc(N=Nc2c(O)ccc3cc(S(=O)(=O)O)ccc23)cc1 : 11800 mg/kg/day (inactive)

TD50 reported for this compound O=P(OCC(Br)CBr)(OCC(Br)CBr)OCC(Br)CBr (stereo unspecified) : 8.31 mg/kg/day

TD50 reported for this compound C=CCc1ccc(O)c(OC)c1 : 293 mg/kg/day

TD50 reported for this compound NC(=O)NN=Cc1ccc([N+](=O)[O-])o1 : 33.8 mg/kg/day

TD50 reported for this compound Clc1nc(Cl)nc(Nc2ccccc2Cl)n1 : 246 mg/kg/day (inactive)

TD50 reported for this compound Nc1c(Br)cc(Br)c2c1C(=O)c1ccccc1C2=O : 130 mg/kg/day

TD50 reported for this compound Nc1cc(S(=O)(=O)[O-])cc2cc(S(=O)(=O)[O-])c(N=Nc3ccc(-c4ccc(N=Nc5c(S(=O)(=O)[O-])cc6cc(S(=O)(=O)[O-])cc(N)c6c5O)c(O)c4)cc3O)c(O)c12.[Cu].[Cu].[Na+].[Na+].[Na+].[Na+] : 921 mg/kg/day

TD50 reported for this compound Cc1cc(N=Nc2c(O)ccc3ccccc23)c(S(=O)(=O)O)cc1Cl : 331 mg/kg/day

TD50 reported for this compound CCNC(=S)NCC : 12.9 mg/kg/day

TD50 reported for this compound Cc1ccc(N=Nc2c(O)ccc3ccccc23)c([N+](=O)[O-])c1 : 906 mg/kg/day

TD50 reported for this compound O=S(=O)(O)c1cc(S(=O)(=O)O)c2c(N=Nc3ccccc3)c(O)ccc2c1 : 2710 mg/kg/day

TD50 reported for this compound COc1ccccc1[N+](=O)[O-] : 21.4 mg/kg/day

TD50 reported for this compound Nc1ccc(/C=C/c2ccc(N)c(S(=O)(=O)O)c2)c(S(=O)(=O)O)c1 : 5810 mg/kg/day (inactive)

TD50 reported for this compound CCn1cc(C(=O)O)c(=O)c2ccc(C)nc21 : 7600 mg/kg/day

TD50 reported for this compound Oc1ccc2ccccc2c1N=Nc1ccccc1 : 106 mg/kg/day

TD50 reported for this compound CC[C@H]1OC(=O)[C@H](C)[C@@H](O[C@H]2C[C@@](C)(OC)[C@@H](O)[C@H](C)O2)[C@H](C)[C@@H](O[C@@H]2O[C@H](C)C[C@H](N(C)C)[C@H]2O)[C@](C)(O)C[C@@H](C)C(=O)[C@H](C)[C@@H](O)[C@]1(C)O : 2020 mg/kg/day (inactive)

TD50 reported for this compound CCC(Br)(CC)C(=O)NC(N)=O : 1030 mg/kg/day (inactive)

TD50 reported for this compound Nc1ccc(N)c2c1C(=O)c1c(N)ccc(N)c1C2=O : 39.3 mg/kg/day

* * *

system: rodent lifetime carcinogenesis bioassay, tumor incidence TD50; assay: carcinogenic potency in animals, long-term in vivo studies, CPDB compilation (AID 1745844); details: rat; strain Fischer 344; females; oral dosing; site: uterus; lesion: endometrial stromal polyp; dosed 78 weeks; study length 104 weeks
PROPERTY LABEL: TD50

TD50 reported for this molecule COc1cc(-c2ccc(N=C=O)c(OC)c2)ccc1N=C=O : 2740 mg/kg/day

* * *

system: rodent lifetime carcinogenesis bioassay, tumor incidence TD50; test: carcinogenic potency in animals, long-term in vivo studies, CPDB compilation (AID 1745844); conditions: mouse; strain B6C3F1; females; inhaled; site: mesentery; lesion: hemangiosarcoma; dosed 104 weeks; study length 104 weeks
PROPERTY LABEL: TD50 (mg/kg/day)
Write it as a number; the unit mg/kg/day goes unstated.

TD50 reported for this compound C=CC(=C)Cl : 32.2

* * *

test system: rodent lifetime carcinogenesis bioassay, tumor incidence TD50; assay: carcinogenic potency in animals, long-term in vivo studies, CPDB compilation (AID 1745844); conditions: mouse; strain B6C3F1; males; by gavage; site: lung; lesion: alveolar/bronchiolar adenoma; dosed 103 weeks; study length 104 weeks
PROPERTY LABEL: TD50

TD50 reported for this compound C=CC1CC=CCC1 (centres undefined) : 926 mg/kg/day

TD50 reported for this compound O=c1ccc2ccccc2o1 : 265 mg/kg/day

TD50 reported for this compound c1ccc2occc2c1 : 136 mg/kg/day

TD50 reported for this compound O=C1CCc2ccccc2O1 : 596 mg/kg/day

* * *

system: rodent lifetime carcinogenesis bioassay, tumor incidence TD50; assay: carcinogenic potency in animals, long-term in vivo studies, CPDB compilation (AID 1745844); conditions: rat; strain Fischer 344; males; inhaled; site: oral mucosa + gingiva + lung + pharynx + thyroid gland + tongue; lesion: squamous-cell papilloma + alveolar/bronchiolar adenoma + alveolar/bronchiolar carcinoma + follicular-cell adenoma + follicular-c; dosed 104 weeks; study length 104 weeks
PROPERTY LABEL: TD50 (mg/kg/day)
Write it as a number; the unit mg/kg/day goes unstated.

TD50 reported for this compound C=CC(=C)Cl : 5.79

* * *

system: rodent lifetime carcinogenesis bioassay, tumor incidence TD50; assay: carcinogenic potency in animals, long-term in vivo studies, CPDB compilation (AID 1745844); conditions: mouse; strain B6C3F1; males; in feed; site: all sites; lesion: histiocytic sarcoma; dosed 101 weeks; study length 103 weeks
PROPERTY LABEL: TD50
Just so you know, I need the unit written after the number.

TD50 reported for this compound CCC1(c2ccccc2)C(=O)NCNC1=O : 1150 mg/kg/day

* * *

system: rodent lifetime carcinogenesis bioassay, tumor incidence TD50; assay: carcinogenic potency in animals, long-term in vivo studies, CPDB compilation (AID 1745844); details: rat; strain Fischer 344; females; by gavage; site: liver; lesion: hepatocellular adenoma; dosed 43 weeks; study length 90 weeks
PROPERTY LABEL: TD50

TD50 reported for this compound CC1SC(C)N(N=O)C(C)S1 (stereo unspecified) : 2.61 mg/kg/day

* * *

tested on: rodent lifetime carcinogenesis bioassay, tumor incidence TD50; assay: carcinogenic potency in animals, long-term in vivo studies, CPDB compilation (AID 1745844); settings: rat; strain Fischer 344; females; in drinking water; site: liver; lesion: neoplastic nodule; dosed 60 weeks; study length 60 weeks
PROPERTY LABEL: TD50 (mg/kg/day)
Write it as a number; the unit mg/kg/day goes unstated.

Readout TD50 for Cc1cc(-c2ccc(N)c(C)c2)ccc1N , test system rodent lifetime carcinogenesis bioassay, tumor incidence TD50, was 7.62
